- experiment: Volume of distribution at steady state in dog at 1 mg/kg, iv and 4 mg/kg, po
- Format: ADME, organism-based, Canis lupus familiaris
- cond: in vivo, read-out: Vdss
Please respond with reported Vd for every item in the list.
Record the result as number plus unit.

Guide cases for Vd, answers given:
# querySmiles, recordedResult
measured = [
    ("CC[C@@H]1C[C@]1(NC(=O)[C@@H]1C[C@@H](Oc2cc(-c3csc(NC(C)C)n3)nc3c(Cl)c(OCCN4CCOCC4)ccc23)CN1C(=O)[C@@H](NC(=O)O[C@@H]1C[C@@H]2C[C@@H]2C1)C(C)(C)C)C(=O)O", "1.15 L/kg"),
    ("CC[C@@H]1C[C@]1(NC(=O)[C@@H]1C[C@@H](Oc2cc(-c3csc(NC(C)C)n3)nc3c(Cl)c(OCCN4CCCCC4)ccc23)CN1C(=O)[C@@H](NC(=O)O[C@@H]1C[C@@H]2C[C@@H]2C1)C(C)(C)C)C(=O)O", "0.39 L/kg"),
    ("CC[C@@H]1C[C@]1(NC(=O)[C@@H]1C[C@@H](Oc2cc(-c3csc(NC(C)C)n3)nc3c(Cl)c(OCCN4CCOCC4(C)C)ccc23)CN1C(=O)[C@@H](NC(=O)O[C@@H]1C[C@@H]2C[C@@H]2C1)C(C)(C)C)C(=O)O", "0.21 L/kg"),
]

Moving on to the next compound.
Vd lookup needed for CC[C@@H]1C[C@]1(NC(=O)[C@@H]1C[C@@H](Oc2cc(-c3csc(NC(C)C)n3)nc3c(Cl)c(OCCN4CC[C@@H](OC)C4)ccc23)CN1C(=O)[C@@H](NC(=O)O[C@@H]1C[C@@H]2C[C@@H]2C1)C(C)(C)C)C(=O)O , thanks. 0.66 L/kg

====

- experiment: Permeability from basolateral to apical side in human Caco2 cells
- Format: ADME, cell-based
- cond: Caco-2, read-out: permeability
Please respond with reported Papp B→A for every item in the list.
Give bare numbers, in ×10⁻⁶ cm/s.

Guide cases for Papp B→A, answers given:
# querySmiles, measuredParameter, recordedResult
measured = [
    ("CC[C@@H]1C[C@]1(NC(=O)[C@@H]1C[C@@H](Oc2cc(-c3csc(NC(C)C)n3)nc3c(Cl)c(OCCN4CCOCC4(C)C)ccc23)CN1C(=O)[C@@H](NC(=O)O[C@@H]1C[C@@H]2C[C@@H]2C1)C(C)(C)C)C(=O)O", "Papp B→A", 10),
    ("CC[C@@H]1C[C@]1(NC(=O)[C@@H]1C[C@@H](Oc2cc(-c3csc(NC(C)C)n3)nc3c(Cl)c(OCCN4CCCCC4)ccc23)CN1C(=O)[C@@H](NC(=O)O[C@@H]1C[C@@H]2C[C@@H]2C1)C(C)(C)C)C(=O)O", "Papp B→A", 20),
]

Moving on to the next compound.
Papp B→A lookup needed for CC[C@@H]1C[C@]1(NC(=O)[C@@H]1C[C@@H](Oc2cc(-c3csc(NC(C)C)n3)nc3c(Cl)c(OC)ccc23)CN1C(=O)[C@@H](NC(=O)O[C@@H]1C[C@@H]2C[C@@H]2C1)C(C)(C)C)C(=O)O , thanks. 25

====

- experiment: Volume of distribution at steady state in cynomolgus monkey at 1 mg/kg, iv and 4 mg/kg, po
- Type: ADME, organism-based, Macaca fascicularis
- cond: in vivo, read-out: Vdss
measuredParameter: Vd

Vd lookup needed for CC[C@@H]1C[C@]1(NC(=O)[C@@H]1C[C@@H](Oc2cc(-c3csc(NC(C)C)n3)nc3c(Cl)c(OCCN4CCOCC4)ccc23)CN1C(=O)[C@@H](NC(=O)O[C@@H]1C[C@@H]2C[C@@H]2C1)C(C)(C)C)C(=O)O , thanks. 0.76 L/kg
